- assayed.system: kappa1 sites (Cavia porcellus, UniProt P41144)
- Construct: The brains were then homogenized in 50 mM Tris HCl, buffer pH 7.7, using a Polytron; from tissue; host or cells: guinea pig brain homogenate (membrane pellet)
- Sequence (P41144 whole entry): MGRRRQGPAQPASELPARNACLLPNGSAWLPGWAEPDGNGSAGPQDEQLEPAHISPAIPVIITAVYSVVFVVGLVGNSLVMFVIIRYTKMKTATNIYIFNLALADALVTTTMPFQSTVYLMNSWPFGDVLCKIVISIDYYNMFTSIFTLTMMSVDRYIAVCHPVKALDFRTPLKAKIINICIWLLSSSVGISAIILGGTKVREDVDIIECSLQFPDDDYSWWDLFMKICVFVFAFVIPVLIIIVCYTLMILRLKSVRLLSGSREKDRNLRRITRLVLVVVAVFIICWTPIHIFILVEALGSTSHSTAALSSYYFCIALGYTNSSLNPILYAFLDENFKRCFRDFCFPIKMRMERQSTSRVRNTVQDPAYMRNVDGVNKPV
- assay.name: biochemical
- Type: binding, guinea pig
pKi: −log10 of the molar value.
assay.metric: pKi

CC(C)C(=O)Oc1ccc2c3c1O[C@H]1[C@@H](OS(=O)(=O)O)C=C[C@H]4[C@@H](C2)N(C)CC[C@@]341 [NIDA # 20,271, 3-O-Isobutyrylmorphine-6-O-sulfate] : 5.34
CCC(=O)Oc1ccc2c3c1O[C@H]1[C@@H](OS(=O)(=O)O)C=C[C@H]4[C@@H](C2)N(C)CC[C@@]341 [NIDA # 20,270, 3-O-Propionylmorphine-6-O-sulfate] : 6.60
CC(=O)Oc1ccc2c3c1O[C@H]1[C@@H](OS(=O)(=O)O)C=C[C@H]4[C@@H](C2)N(C)CC[C@@]341 [NIDA # 20,264, 3-O-Acetylmorphine-6-O-sulfate] : 5.93
CN1CC[C@]23c4c5ccc(O)c4O[C@H]2[C@@H](OS(=O)(=O)O)C=C[C@H]3[C@H]1C5 [NIDA # 20,266, Morphine-6-O-Sulfate] : 5.92
Oc1ccc2c3c1O[C@H]1c4[nH]c5ccccc5c4C[C@@]4(O)[C@@H](C2)N(CC2CC2)CC[C@]314 : 8.11
C=CCN1CC[C@]23c4c5ccc(O)c4O[C@H]2/C(=N/NC(=O)c2ccccc2)CC[C@@]3(O)[C@H]1C5 [NalBzoH, naloxone benzoylhydrazone] : 9.40
CN1CC[C@]23c4c5ccc(OC(=O)C(C)(C)C)c4O[C@H]2[C@@H](OS(=O)(=O)O)C=C[C@H]3[C@H]1C5 [NIDA # 20,272, 3-O-Pivaloylmorphine-6-O-sulfate] : 5.71
